MEASURED ON: T1, GABARAP (recombinant, for ITC, SEC and crystallization) (UniProt Q9DCD6 1-117)
T1 construct: GABARAP; also called recombinant GABARAP protein; source: E. coli BL21 (DE3), purified
ASSAY NAME: ITC; VP-ITC, 25 °C; 50 mM Tris/HCl pH 7.5, 100 mM NaCl, 1 mM DTT, 1 mM EDTA; GABARAP or LC3A (350 uM) injected into Trx-tagged FAM134B (35 uM) in the cell; one-site binding model
CONDITION DESCRIPTION: both partners purified
No end group written: not given here.
PARAMETER MEASURED: Kd (nM)
# number only, unit nM dropped from output

Ask: Given the binder EGDDFELLDQSELDQIESELGLTQDQ (domain or fragment, UniProt Q9H6L5 451-476, looked up, also: Trx-tagged, FAM134B (reticulophagy regulator 1), LIR and C-terminal extension, residues 451-476; 451-476 is what the results give for FAM134B LIR; Named 'Trx-tagged FAM134B' for ITC; I take the same construct for SEC-MALS; source: E. coli BL21 (DE3), purified (Ni2+-NTA, size-exclusion chromatography); not shown: Trx-His6, N-terminal, kept) [Trx-tagged FAM134B LIR (aa 451-476)] , what is its reported Kd?
Result: 42
